Assay: Non-compartmental pharmacokinetic analysis of maternal SRI plasma levels
Format: in vivo, human
Details: mean ± SE; time from baseline (T0) to reach Cmax; oral dose about 1.8 h after T0
Measure Name: Tpeak (h)

* CNCCC(Oc1ccc(C(F)(F)F)cc1)c1ccccc1 (centres unmarked) [Fluoxetine] | 5.8
* CN[C@H]1CC[C@@H](c2ccc(Cl)c(Cl)c2)c2ccccc21 [Sertraline] | 5.3
* CN(C)CCCC1(c2ccc(F)cc2)OCc2cc(C#N)ccc21 (centres unmarked) [Citalopram] | 4.9
* Fc1ccc([C@@H]2CCNC[C@H]2COc2ccc3c(c2)OCO3)cc1 [Paroxetine] | 4.6
* COc1ccc(C(CN(C)C)C2(O)CCCCC2)cc1 (centres unmarked) [Venlafaxine] | 5.7
